# Experimental Target: Human CB1R (Cannabinoid receptor 1) (Homo sapiens, UniProt P21554)
# Sequence (P21554 whole entry): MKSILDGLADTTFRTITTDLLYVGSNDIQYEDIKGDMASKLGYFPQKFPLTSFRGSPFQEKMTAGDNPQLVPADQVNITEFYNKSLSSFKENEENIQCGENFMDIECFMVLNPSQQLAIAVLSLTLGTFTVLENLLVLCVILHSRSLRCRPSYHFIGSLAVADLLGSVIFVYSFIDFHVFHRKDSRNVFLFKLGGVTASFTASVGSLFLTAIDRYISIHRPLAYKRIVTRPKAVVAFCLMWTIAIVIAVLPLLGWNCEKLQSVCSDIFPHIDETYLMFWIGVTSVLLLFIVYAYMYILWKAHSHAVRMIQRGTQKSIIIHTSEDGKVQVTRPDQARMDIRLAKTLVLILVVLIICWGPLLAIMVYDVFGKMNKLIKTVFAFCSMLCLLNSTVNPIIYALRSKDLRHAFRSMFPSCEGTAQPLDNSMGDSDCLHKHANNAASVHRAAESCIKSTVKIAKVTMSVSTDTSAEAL
# Test Protocol: CB-1 in vitro cAMP (HTRF) assay
# Format: cell-based
# Measurement Setup: HEK cells, cAMP HTRF, 250 nM forskolin; mean where tested more than once; read-out: CB1 HEK_cAMP EC50
So basically: is EC50 under 0.03 µM? Then 1. Not under? Then 0.

Decide: EC50 of CC(C)c1nc2ccc(C(c3ccc(Cl)cc3)c3nccs3)cc2n1-c1cccc(Cl)c1 (stereo not shown) strictly below 0.03 µM?
0

For this molecule, is EC50 lower than 0.03 µM? Cc1nc2ccc(C(c3ccc(Cl)cc3)c3nc(C(F)(F)F)cs3)cc2n1Cc1ccc(Cl)cc1 (stereo not shown)
0

Dear reviewer, please state whether O=S(=O)(N1CCC(n2c(-c3cccnc3)nc3ccc(C(c4ccc(Cl)cc4)c4nccs4)cc32)CC1)C(F)(F)F (stereo not shown) has EC50 strictly beneath 0.03 µM.
1

Below 0.03 µM on EC50? Entry O=C(NCCO)c1ccc(S(=O)(=O)N2CCC(n3c(C4CC4)nc4ccc(C(c5ccc(Cl)cc5)c5ccc(Cl)cc5)cc43)CC2)cn1
0

Below 0.03 µM on EC50? Entry CC(C)(C)c1csc(C(c2ccc(Cl)cc2)c2ccc3ncn(Cc4ccc(Cl)cc4)c3c2)n1 (stereo not shown)
0

Take the molecule NC(=O)COc1ccc(-n2c(C3CC3)nc3ccc(C(c4ccc(Cl)cc4)c4ccc(Cl)cc4)cc32)cc1 and say whether its EC50 is less than 0.03 µM.
0

Dear reviewer, please state whether Cc1cc(C(N)=O)sc1S(=O)(=O)N1CCC(n2c(C3CC3)nc3ccc(C(c4ccc(Cl)cc4)c4ccc(Cl)cc4)cc32)CC1 has EC50 strictly beneath 0.03 µM.
1

A record lists NC(=O)COc1cccc(N2CCC(n3c(C4CC4)nc4ccc(C(c5ccc(Cl)cc5)c5ccc(Cl)cc5)cc43)CC2)c1 . Is its EC50 below 0.03 µM?
1

Please state whether EC50 is below 0.03 µM for Cc1nc2ccc(C(c3ccc(Cl)cc3)c3nccs3)cc2n1Cc1ccc(Cl)cc1 (stereo not shown)
0

Please let me know if O=C(O)c1cc(CN2CCC(n3c(C4CC4)nc4ccc(C(c5ccc(Cl)cc5)c5ccc(Cl)cc5)cc43)CC2)cc(C(F)(F)F)c1 shows EC50 below 0.03 µM.
0

Threshold test, EC50 < 0.03 µM: O=C(O)c1ccc(F)c(CN2CCC(n3c(C4CC4)nc4ccc(C(c5ccc(Cl)cc5)c5ccc(Cl)cc5)cc43)CC2)c1
1

hey, is EC50 for Clc1ccc(C(c2ccc3nc(-c4ccco4)n(-c4cccc(Cl)c4)c3c2)c2nccs2)cc1 (stereo not shown) lower than 0.03 µM or not?
0

# strict comparison: is reported EC50 < 0.03 µM? input = CNC(=O)c1cccc(S(=O)(=O)N2CCC(n3c(C4CC4)nc4ccc(C(c5ccc(Cl)cc5)c5ccc(Cl)cc5)cc43)CC2)c1
1

In plain terms, does OC(c1ccc(Cl)cc1)(c1ccc2ncn(CCc3cccc(Cl)c3)c2c1)c1nccs1 (stereo not shown) come in under 0.03 µM for EC50?
0

Hi there! Is EC50 for Clc1ccc(C(c2ccc(Cl)cc2)c2ccc3nc(C4CC4)n(CCc4cccc(Br)c4)c3c2)cc1 below 0.03 µM, do you know?
1

Decide: EC50 of Clc1ccc(C(c2ccc(Cl)cc2)c2ccc3nc(C4CC4)n(CCOc4cccc(Br)c4)c3c2)cc1 strictly below 0.03 µM?
1

Given the entry O=S(=O)(c1cccc(C(F)(F)F)c1)N1CCC(n2c(C3CC3)nc3ccc(C(c4ccc(Cl)cc4)c4ccc(Cl)cc4)cc32)CC1 , would its reported EC50 be below 0.03 µM?
1

Strictly below 0.03 µM in EC50? O=C(OC[C@@H](O)[C@H](O)CO)N1CCC(n2c(C3CC3)nc3ccc(C(c4ccc(Cl)cc4)c4ccc(Cl)cc4)cc32)CC1
0

Would you kindly verify if EC50 of NC(=O)c1ccc(S(=O)(=O)N2CCC(n3c(C4CC4)nc4ccc(C(c5ccc(Cl)cc5)c5ccc(Cl)cc5)cc43)CC2)cc1Cl is strictly less than 0.03 µM?
1

Is 0.03 µM strictly greater than the molecule's reported EC50? molecule: O=S(=O)(N1CCC(n2c(C3CC3)nc3ccc(C(CO)(c4ccc(Cl)cc4)c4ccc(Cl)cc4)cc32)CC1)C(F)(F)F
0

Strictly below 0.03 µM in EC50? Clc1ccc(C(c2ccc3nc(-c4ccc(Cl)cc4Cl)n(C4CCCCC4)c3c2)c2nccs2)cc1 (stereo not shown)
0

State whether 0.03 µM exceeds EC50 recorded for Clc1ccc(C(c2ccc(Cl)cc2)c2ccc3nc(C4CC4)n(CCc4ccc(Br)cc4)c3c2)cc1 .
1

In the record for CCc1nc2ccc(C(c3ccc(Cl)cc3)c3ccc(Cl)cc3)cc2n1CCc1ccc(C(F)(F)F)cc1 , is EC50 less than 0.03 µM?
1

Record CCCc1nc2ccc(C(c3ccc(Cl)cc3)c3nccs3)cc2n1-c1cccc(Cl)c1 (stereo not shown) : is its EC50 strictly below 0.03 µM?
0

Is EC50 of CC(C)c1nc2ccc(C(c3ccc(Cl)cc3)c3nccs3)cc2n1C1CCN(S(=O)(=O)C(F)(F)F)CC1 (stereo not shown) strictly below 0.03 µM?
0

Here's an entry: O=S(=O)(c1ccc(F)cc1)N1CCC(n2c(C3CC3)nc3ccc(C(c4ccc(Cl)cc4)c4ccc(Cl)cc4)cc32)CC1 . Is its EC50 below 0.03 µM?
1

Does this molecule meet the criterion EC50 < 0.03 µM? Clc1ccc(-c2nc3ccc(C(c4ccc(Cl)cc4)c4nccs4)cc3n2C2CCCCC2)cc1 (stereo not shown)
0

----------
# Experimental Target: UniProtKB P34972
# Test Protocol: CB-2 in vitro cAMP (HTRF) assay
# Measurement Setup: HEK cells, cAMP HTRF, 250 nM forskolin; mean where tested more than once; read-out: CB2 HEK_cAMP EC50
pEC50: −log10 of the molar value.
Assay Readout: pEC50

// map CCOC(=O)N1CCC(n2c(C(F)(F)F)nc3ccc(C(c4ccc(Cl)cc4)c4nccs4)cc32)CC1 (stereo not shown) to recorded pEC50 (system: UniProtKB P34972)
< 5.00

Any idea what pEC50 came out for NC(=O)c1ccc(S(=O)(=O)N2CCC(n3c(C4CC4)nc4ccc(C(c5ccc(Cl)cc5)c5ccc(Cl)cc5)cc43)CC2)cc1Cl on UniProtKB P34972?
5.20

GET /values?readout=pEC50&system=UniProtKB P34972&item= O=C(O)C(c1ccc(Cl)cc1)(c1ccc(Cl)cc1)c1ccc2nc(C3CC3)n(C3CCN(S(=O)(=O)C(F)(F)F)CC3)c2c1
< 5.00

UniProtKB P34972 / pEC50 / CNC(=O)c1cccc(S(=O)(=O)N2CCC(n3c(C4CC4)nc4ccc(C(c5ccc(Cl)cc5)c5ccc(Cl)cc5)cc43)CC2)c1 : value?
< 5.00

// map CCOC(=O)N1CCC(n2c(C3CCCO3)nc3ccc(C(c4ccc(Cl)cc4)c4nccs4)cc32)CC1 (stereo not shown) to recorded pEC50 (system: UniProtKB P34972)
< 5.00

Lab note: need pEC50 for COc1cccc(Cn2c(C3CC3)nc3ccc(C(c4ccc(Cl)cc4)c4ccc(Cl)cc4)cc32)c1 on UniProtKB P34972, anyone have it?
< 5.00

Hi! What's the reported pEC50 for O=C(O)c1ccc(C(O)(c2ccc(Cl)cc2)c2ccc3nc(C4CC4)n(C4CCN(S(=O)(=O)C(F)(F)F)CC4)c3c2)cc1 (stereo not shown) on UniProtKB P34972?
< 5.00

----------
# Experimental Target: Human CB2R (Cannabinoid receptor 2) (Homo sapiens)
# Sequence (P34972 whole entry): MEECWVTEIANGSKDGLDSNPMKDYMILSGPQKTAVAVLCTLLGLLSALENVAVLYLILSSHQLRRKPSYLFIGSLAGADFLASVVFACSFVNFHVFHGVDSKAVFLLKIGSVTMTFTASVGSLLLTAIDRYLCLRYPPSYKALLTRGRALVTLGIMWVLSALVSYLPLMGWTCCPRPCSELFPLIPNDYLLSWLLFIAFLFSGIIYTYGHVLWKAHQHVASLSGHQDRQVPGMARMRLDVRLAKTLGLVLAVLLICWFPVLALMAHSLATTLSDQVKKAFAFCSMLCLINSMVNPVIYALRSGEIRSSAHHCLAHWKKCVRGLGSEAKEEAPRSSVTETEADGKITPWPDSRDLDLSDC
# Test Protocol: CB-2 in vitro cAMP (HTRF) assay
# Measurement Setup: HEK cells, cAMP HTRF, 250 nM forskolin; mean where tested more than once; read-out: CB2 HEK_cAMP EC50
pEC50: −log10 of the molar value.
Assay Readout: pEC50

For the compound CCc1nc2ccc(C(c3ccc(Cl)cc3)c3nccs3)cc2n1C1CCN(S(=O)(=O)C(F)(F)F)CC1 (stereo not shown) [Example 400] , what pEC50 is on record?
< 5.00

Form field: reported pEC50 of NC(=O)c1csc(S(=O)(=O)N2CCC(n3c(C4CC4)nc4ccc(C(c5ccc(Cl)cc5)c5ccc(Cl)cc5)cc43)CC2)c1 [Example 216]
< 5.00

If you can, please state the reported pEC50 value of O=C(O)c1cc(CN2CCC(n3c(C4CC4)nc4ccc(C(c5ccc(Cl)cc5)c5ccc(Cl)cc5)cc43)CC2)ccn1 [Example 83] .
4.95

Given the entry CCOC(=O)c1nc2ccc(C(c3ccc(Cl)cc3)c3nccs3)cc2n1-c1cccc(Cl)c1 (stereo not shown) [Example 429] , report its measured pEC50.
< 5.00

Bench note: what pEC50 did CC(c1cc(C(=O)O)ccn1)N1CCC(n2c(C3CC3)nc3ccc(C(c4ccc(Cl)cc4)c4ccc(Cl)cc4)cc32)CC1 (stereo not shown) [Example 59] show?
< 4.68

I would be grateful if you could share the reported pEC50 for NC(=O)c1csc(CN2CCC(n3c(C4CC4)nc4ccc(C(c5ccc(Cl)cc5)c5ccc(Cl)cc5)cc43)CC2)c1 [Example 127] .
< 5.00

// pEC50 lookup, key: Clc1ccc(C(c2ccc(Cl)cc2)c2ccc3nc(C4CC4)n(C4Cc5ccccc5C4)c3c2)cc1 [Example 300]
< 5.00
